TEST READOUT: melting point

These recorded examples may help you get a feel for the data.
COc1cc(C(=O)O)c2oc(-c3ccccc3)cc2c1 : 185 to 187 °C
COc1cc(Nc2c(C#N)cnc3cc(-c4cnc(C=O)n4C)sc23)c(Cl)cc1Cl : 225 to 227 °C
Cn1cc(/C=C/c2ccc3ccccc3n2)cc1C(=O)O : > 230 °C
O=C1c2ccccc2C(=O)N1CCCSc1ncccn1 : 81.5 to 82.5 °C

For COc1ccc(N2CCN(c3ccc(N4C(=O)N(C(C)C(C)=O)C(C)(C)C4=O)cc3)CC2)cc1 (stereo not given) the molecule record lists melting point as 226 °C

melting point for Cc1ncc([N+](=O)[O-])n1CCOC(=O)Cc1ccccc1Nc1c(Cl)cccc1Cl is 122 to 124 °C

Per the record, COc1nc(OC)c(C(C)C)c(C(=O)c2cc(C)cc(C=O)c2)n1 has melting point of 111 to 113 °C

get_value(item= COCCn1nc2c(N)nc3ccccc3c2c1CC(C)(C)C(N)=O , readout=melting point) returns 225 to 226 °C

// field: melting point; key: CNCc1ccc(-c2cc3ncnc(Nc4ccc5[nH]ccc5c4)c3s2)cc1 ; value = 140 to 147 °C

Reported melting point of CCOC(=O)C1C(c2ccc(OC)cc2)=NCC1c1ccc2c(c1)OCO2 (stereo not given) : 80 to 81 °C

Each recorded value in this set is attributed to a melting point compilation (Tetko et al.; mined from patent text by program, amines drawn as free bases though some values may be those of a salt).
